System: Alzheimer's disease (AD) in patients over the age of 60
Test: Health care database study at three hospitals: frequency of AD by medication (ICD-9-CM codes)
Format: in vivo, human
Details: patients 60 years or over; data from the three sites combined
For each record, write down the corresponding Prevalence Of AD/1000 Combined.

Look over these answered cases.
                                   compound  value_measured
0  NS(=O)(=O)c1cc(C(=O)O)c(NCc2ccco2)cc1Cl [Furosemide, furosemide]       8.9 /1000
1  CC(C)NCC(O)COc1cccc2ccccc12 (stereo not shown) [Propanolol, propanolol]      17.5 /1000
2  CCC(C)(C)C(=O)O[C@H]1C[C@@H](C)C=C2C=C[C@H](C)[C@H](CC[C@@H]3C[C@@H](O)CC(=O)O3)[C@H]21 [Simvastatin, simvastatin]      11.2 /1000
3  COCCc1ccc(OCC(O)CNC(C)C)cc1 (stereo not shown) [Metoprolol, metoprolol]      12.1 /1000

Each compound below has a recorded value; state its Prevalence Of AD/1000 Combined.
1. CC(C)NCC(O)COc1ccc(CC(N)=O)cc1 (stereo not shown) [Atenolol, atenolol]
2. CC[C@H](C)C(=O)O[C@H]1C[C@H](O)C=C2C=C[C@H](C)[C@H](CC[C@@H](O)C[C@@H](O)CC(=O)O)[C@H]21 [Pravastatin]
3. C[C@H](CS)C(=O)N1CCC[C@H]1C(=O)O [Captopril, captopril]

Ans:
1. 14.8 /1000
2. 4.3 /1000
3. 10.6 /1000
